testedTarget: recombinant human ACC2 (Homo sapiens)
Construct: a cDNA encoding human ACC2 (27-2458) was cloned from human kidney cDNA library (Clontech); His-tag (N); made in house; host or cells: Sf-9 insect cells (Bac-to-Bac baculovirus)
testSummary: Measurement of inhibitory activity on human ACC2 (MALDI-TOF MS, acetyl CoA to malonyl CoA conversion)
Format: biochemical
measurementParameters: inhibition activity on human ACC2, Table 80; read-out: IC50
pIC50: −log10 of the molar value.
Tag: Met if measured pIC50 is not below 7, Not met if it is.

compound	assignedClass
C[C@@H](/C=C/c1cnc(Oc2ccc(OCC3CC3)cc2Cl)s1)NC(=O)c1ccnc(C(=O)NCCO)c1 [Compound I-206]	Met

Quick check: does C[C@@H](/C=C/c1cnc(Oc2ccc(OCC3CC3)cc2Cl)s1)NC(=O)c1cccc(C2=NCCO2)c1 [Compound I-143] have pIC50 greater than or equal to 7? Not met

Quick check: does CC(=O)Nc1ncc(C(=O)N[C@@H](C)/C=C/c2cnc(Oc3ccc(OCC4CC4)cc3Cl)s2)s1 [Compound I-159] have pIC50 greater than or equal to 7? Not met

Quick check: does C[C@@H](/C=C/c1cnn(Cc2ccc(OCC3CC3)cc2Cl)c1)NC(=O)C1CC1 [Compound I-172] have pIC50 greater than or equal to 7? Not met

Quick check: does C[C@@H](/C=C/c1cnc(Oc2ccc(OCC3CC3)cc2Cl)s1)NC(=O)c1ccnc(OCCN2CCCC2)c1 [Compound I-242] have pIC50 greater than or equal to 7? Met

Quick check: does C[C@@H](/C=C/c1cnc(Oc2ccc(OCC3CC3)cc2Cl)s1)NC(=O)c1ccnc(C(=O)NC2CCOCC2)c1 [Compound I-209] have pIC50 greater than or equal to 7? Met

Quick check: does COc1cccc(C(=O)N[C@@H](C)/C=C/c2cnc(Oc3ccc(OCC4CC4)cc3Cl)s2)c1 [Compound I-156] have pIC50 greater than or equal to 7? Not met

Quick check: does Cc1cc(N[C@@H](C)/C=C/c2cnn(Cc3ccc(OCC4CC4)cc3Cl)c2)no1 [Compound I-205] have pIC50 greater than or equal to 7? Not met

Quick check: does CCCOc1ccc(Oc2ncc(/C=C/[C@H](C)NC(=O)c3ccnc(C(=O)OCC)c3)s2)c(Cl)c1 [Compound I-168] have pIC50 greater than or equal to 7? Met

Quick check: does C[C@@H](/C=C/c1cnc(Oc2ccc(OCC3CC3)cc2Cl)s1)NC(=O)Cn1ccnc1 [Compound I-123] have pIC50 greater than or equal to 7? Not met

Quick check: does C[C@@H](/C=C/c1cnc(Oc2ccc(OCC3CC3)cc2Cl)s1)NC(=O)c1cccc(-c2ncco2)c1 [Compound I-144] have pIC50 greater than or equal to 7? Not met

Quick check: does C[C@@H](/C=C/c1cnc(Oc2ccc(OCC3CC3)cc2Cl)s1)NC(=O)c1cccc(C#N)c1 [Compound I-155] have pIC50 greater than or equal to 7? Not met

Quick check: does C[C@@H](/C=C/c1cnn(Cc2ccc(OCC3CC3)cc2Cl)c1)NC(=O)c1ccnc(C(N)=O)c1 [Compound I-235] have pIC50 greater than or equal to 7? Not met

----------
testedTarget: recombinant human ACC2 (Homo sapiens, UniProt O00763)
Construct: a cDNA encoding human ACC2 (27-2458) was cloned from human kidney cDNA library (Clontech); His-tag (N); made in house; host or cells: Sf-9 insect cells (Bac-to-Bac baculovirus)
Sequence (O00763 27-2458): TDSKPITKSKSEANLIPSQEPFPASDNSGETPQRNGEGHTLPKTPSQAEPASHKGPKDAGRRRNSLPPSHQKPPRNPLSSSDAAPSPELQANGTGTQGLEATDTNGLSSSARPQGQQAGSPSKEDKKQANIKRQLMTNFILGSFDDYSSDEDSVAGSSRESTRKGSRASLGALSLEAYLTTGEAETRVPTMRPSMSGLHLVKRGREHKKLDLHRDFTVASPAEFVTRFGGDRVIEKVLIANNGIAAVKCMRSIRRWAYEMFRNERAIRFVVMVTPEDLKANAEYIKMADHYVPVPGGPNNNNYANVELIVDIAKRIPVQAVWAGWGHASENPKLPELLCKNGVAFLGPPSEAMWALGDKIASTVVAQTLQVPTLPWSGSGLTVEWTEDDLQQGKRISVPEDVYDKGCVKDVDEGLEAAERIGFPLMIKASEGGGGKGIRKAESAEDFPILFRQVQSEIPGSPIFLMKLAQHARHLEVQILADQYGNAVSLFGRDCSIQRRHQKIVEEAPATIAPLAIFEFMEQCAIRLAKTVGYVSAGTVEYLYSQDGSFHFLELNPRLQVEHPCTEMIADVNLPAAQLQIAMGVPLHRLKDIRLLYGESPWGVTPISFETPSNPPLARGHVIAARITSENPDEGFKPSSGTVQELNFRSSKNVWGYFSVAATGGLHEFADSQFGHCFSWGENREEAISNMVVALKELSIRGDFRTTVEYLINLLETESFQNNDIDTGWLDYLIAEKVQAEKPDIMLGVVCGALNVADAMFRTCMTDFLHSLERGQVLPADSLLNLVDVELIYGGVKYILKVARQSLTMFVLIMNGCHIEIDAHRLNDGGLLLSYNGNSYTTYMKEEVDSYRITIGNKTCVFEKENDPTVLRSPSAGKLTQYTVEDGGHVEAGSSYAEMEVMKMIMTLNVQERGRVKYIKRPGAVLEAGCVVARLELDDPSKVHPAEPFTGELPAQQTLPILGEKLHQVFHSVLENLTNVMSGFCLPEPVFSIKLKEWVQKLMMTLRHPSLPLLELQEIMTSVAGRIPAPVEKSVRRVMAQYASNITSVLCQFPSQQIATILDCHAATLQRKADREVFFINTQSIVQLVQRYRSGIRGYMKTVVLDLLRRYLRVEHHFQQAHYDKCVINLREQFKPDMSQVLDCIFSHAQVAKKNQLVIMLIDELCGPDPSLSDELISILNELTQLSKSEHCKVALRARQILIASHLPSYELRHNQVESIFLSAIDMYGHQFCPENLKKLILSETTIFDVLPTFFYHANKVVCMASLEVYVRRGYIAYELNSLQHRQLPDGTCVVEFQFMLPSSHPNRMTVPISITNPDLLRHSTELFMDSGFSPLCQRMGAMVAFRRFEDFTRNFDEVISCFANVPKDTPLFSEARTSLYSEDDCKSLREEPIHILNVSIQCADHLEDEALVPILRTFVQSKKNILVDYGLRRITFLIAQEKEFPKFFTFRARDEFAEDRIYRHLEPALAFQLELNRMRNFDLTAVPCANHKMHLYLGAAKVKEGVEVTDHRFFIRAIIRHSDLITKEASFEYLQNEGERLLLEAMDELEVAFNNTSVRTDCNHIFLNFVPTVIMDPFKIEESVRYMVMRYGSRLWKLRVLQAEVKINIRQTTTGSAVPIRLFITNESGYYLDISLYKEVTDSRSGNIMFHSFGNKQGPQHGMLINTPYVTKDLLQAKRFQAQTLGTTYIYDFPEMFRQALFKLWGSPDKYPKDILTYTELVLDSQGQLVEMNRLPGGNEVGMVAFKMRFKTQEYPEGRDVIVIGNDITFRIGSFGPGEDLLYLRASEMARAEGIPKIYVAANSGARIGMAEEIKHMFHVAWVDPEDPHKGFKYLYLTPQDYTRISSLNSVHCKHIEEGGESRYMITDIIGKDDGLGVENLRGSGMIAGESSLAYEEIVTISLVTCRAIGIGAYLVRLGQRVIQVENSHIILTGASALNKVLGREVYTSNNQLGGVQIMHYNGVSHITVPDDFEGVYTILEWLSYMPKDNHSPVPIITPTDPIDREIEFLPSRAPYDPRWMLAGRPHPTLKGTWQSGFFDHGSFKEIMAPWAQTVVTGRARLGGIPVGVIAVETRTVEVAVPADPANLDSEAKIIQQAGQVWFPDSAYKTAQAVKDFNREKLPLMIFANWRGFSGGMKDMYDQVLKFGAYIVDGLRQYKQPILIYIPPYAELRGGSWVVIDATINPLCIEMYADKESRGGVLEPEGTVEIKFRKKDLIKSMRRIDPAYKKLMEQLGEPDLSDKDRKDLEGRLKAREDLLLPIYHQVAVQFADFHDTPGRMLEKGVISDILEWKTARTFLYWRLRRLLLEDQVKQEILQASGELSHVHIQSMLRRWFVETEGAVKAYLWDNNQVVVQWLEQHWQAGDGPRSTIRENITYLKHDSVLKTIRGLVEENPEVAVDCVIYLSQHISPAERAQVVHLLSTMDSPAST
testSummary: Measurement of inhibitory activity on human ACC2 (MALDI-TOF MS, acetyl CoA to malonyl CoA conversion)
Type: biochemical
measurementParameters: inhibition activity on human ACC2, Table 79; read-out: IC50
pIC50: −log10 of the molar value.
Tag: t if measured pIC50 is not below 7, f if it is.

The following molecules have reported results that may help.
structure	assignedClass
C[C@@H](/C=C/c1cnc(Oc2ccc(OCC3CC3)cc2Cl)s1)NC(=O)CCCCCCNC(=O)OC(C)(C)C	f
CC(=O)N[C@@H](C)/C=C/c1ccc(Oc2ccc(OCC(C)C)cc2Cl)nc1	t
C[C@@H](/C=C/c1cnc(Oc2ccc(OCC3CC3)cc2Cl)s1)NC(=O)CC#N	t
CC(=O)N[C@@H](C)/C=C/c1ccc(Oc2cccc(OC(C)C)c2Cl)nc1	t
CC(=O)N[C@@H](C)/C=C/c1ccc(Oc2ccc(NCC3CC3)c(Cl)c2)nc1	t

Quick check: does CC(=O)N[C@@H](C)/C=C/c1ccc(Oc2ccc(OC(C)C)cc2Cl)nc1 have pIC50 greater than or equal to 7? t

Quick check: does C[C@@H](/C=C/c1cnc(Oc2ccc(OCC3CC3)cc2Cl)s1)NC(=O)CN1C(=O)CCC1=O have pIC50 greater than or equal to 7? f

Quick check: does CC(=O)N[C@@H](C)/C=C/c1ccc(Oc2ccc(OCC3CC3)cc2Cl)nn1 have pIC50 greater than or equal to 7? f

Quick check: does CCCOc1ccc(Oc2ncc(/C=C/[C@H](C)NC(C)=O)s2)c(Cl)c1 have pIC50 greater than or equal to 7? t

Quick check: does CCOc1ccc(C(F)(F)c2ccc(/C=C/[C@H](C)NC(C)=O)cn2)c(Cl)c1 have pIC50 greater than or equal to 7? f

Quick check: does CC(C)S(=O)(=O)NCCCCC(=O)N[C@@H](C)/C=C/c1cnc(Oc2ccc(OCC3CC3)cc2Cl)s1 have pIC50 greater than or equal to 7? t

Quick check: does CC(=O)N[C@@H](C)/C=C/c1cnc(Oc2cccc(OCC3CC3)c2Cl)s1 have pIC50 greater than or equal to 7? t
